# credit: patent US20220204473A1

target: human IRAK4 (Homo sapiens); construct: purchased Cama (so in the source); assay: IRAK4 MSA (Mobility-Shift Assay) at Km ATP; assay type: biochemical; settings: GST-IRAK4 1 nM, ATP 37 μM (Km); read-out: IC50 for inhibiting human IRAK4 kinase
Sequence (Q9NWZ3 whole entry): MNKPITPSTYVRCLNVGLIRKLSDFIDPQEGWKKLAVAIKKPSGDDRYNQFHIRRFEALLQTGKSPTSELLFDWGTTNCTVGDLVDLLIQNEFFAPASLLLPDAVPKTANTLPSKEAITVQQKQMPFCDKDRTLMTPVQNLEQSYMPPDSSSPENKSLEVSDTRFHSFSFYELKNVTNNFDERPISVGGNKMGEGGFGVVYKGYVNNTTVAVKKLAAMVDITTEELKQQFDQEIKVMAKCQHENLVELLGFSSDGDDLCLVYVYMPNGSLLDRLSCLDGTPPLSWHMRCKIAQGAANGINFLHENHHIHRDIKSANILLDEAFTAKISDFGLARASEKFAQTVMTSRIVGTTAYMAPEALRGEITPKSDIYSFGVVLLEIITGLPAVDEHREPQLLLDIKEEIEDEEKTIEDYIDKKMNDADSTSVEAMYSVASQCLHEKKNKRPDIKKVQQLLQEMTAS
metric: log10(IC50) (log10 of the value in nM)

| molecule | log10(IC50) |
| --- | --- |
| COc1cc2nn([C@H]3CC[C@@H](O)CC3)cc2cc1NC(=O)c1cccc(C(F)(F)F)n1 | 0.63 |
| COc1cc2nn([C@H]3C[C@H](C(C)(C)O)C3)cc2cc1NC(=O)c1cccc(C(F)F)n1 | 0.30 |
| CC(C)(O)[C@H]1C[C@H](n2cc3cc(NC(=O)c4cccc(C(F)(F)F)n4)c(-n4cc(C#N)cn4)cc3n2)C1 | 0.92 |
| COc1cc2nn([C@H]3CC[C@H](O)CC3)cc2cc1NC(=O)c1cccc(C(F)(F)F)n1 | 0.72 |
| C[C@]1(O)CC[C@@H](n2cc3cc(NC(=O)c4cccc(C(F)(F)F)n4)c(-n4cccn4)cc3n2)CC1 | 0.23 |
| CN(C)c1cc2nn([C@H]3CC[C@H](O)CC3)cc2cc1NC(=O)c1cccc(C(F)(F)F)n1 | 0.28 |
| O=C(Nc1cc2cn([C@H]3CC[C@H](O)CC3)nc2cc1OCC1CC1)c1cccc(C(F)(F)F)n1 | 0.34 |
| CC(C)(O)c1cc2nn([C@H]3CC[C@](C)(O)CC3)cc2cc1NC(=O)c1cccc(C(C)(F)F)n1 | 0.62 |
| COc1cc2nn([C@H]3C[C@H](C(C)(C)O)C3)cc2cc1NC(=O)c1cccc(C)n1 | 1.11 |
| COc1cc2nn(C3CC(C)(O)C3)cc2cc1NC(=O)c1cccc(C(F)(F)F)n1 (stereo not drawn) | 0.82 |
| COc1cc2nn([C@H]3CC[C@@](C)(O)CC3)cc2cc1NC(=O)c1cccc(C(F)(F)F)n1 | 0.00 |
| CC(C)(O)[C@H]1C[C@H](n2cc3cc(NC(=O)c4cccc(C(F)(F)F)n4)c(-n4cccn4)cc3n2)C1 | 0.64 |
| CC(C)(O)c1cc2nn([C@H]3C[C@H](C(C)(C)O)C3)cc2cc1NC(=O)c1cccc(C(F)(F)F)n1 | 0.76 |
| COc1cc2nn([C@H]3C[C@H](C(C)(C)O)C3)cc2cc1NC(=O)c1cccc(F)n1 | 1.15 |
| COc1cc2nn(C3CC(O)C3)cc2cc1NC(=O)c1cccc(C(F)(F)F)n1 (stereo not drawn) | 0.98 |
